I'd appreciate it if you could supply MIC values for the items below.
# System: Aspergillus fumigatus strain IFM4942
# assayExplanation: Minimum Inhibitory Concentration (MIC), agar plate dilution method
# Assay type: cell-based
# conditionSummary: Aspergillus fumigatus, IFM4942, 48 h, Sabouraud's dextrose agar, 30°C for 2 days, visual growth, read-out: MIC
Answer format: numeric, µg/mL implied, no suffix.

Input: Sample CCC(=NOCc1ccncc1)C1(C(O)(Cn2cncn2)c2ccc(F)cc2F)CC1 (stereo not shown) — what was its MIC?
Output: 6.25

Input: What value of MIC has been reported for the following molecule? COCON=C(C(C)C)C1(C(O)(Cn2cncn2)c2ccc(F)cc2F)CC1 (stereo not shown)
Output: 25

Input: # input molecule: CC(=NO)C(C)(C)C(O)(Cn1cncn1)c1ccc(F)cc1F (stereo not shown) ; wanted: its MIC
Output: 12.5

Sourced from patent EP0670315A1
